Entry source: PubChem BioAssay (NCI)

- System: U251 CNS
- experiment.description: NCI-60 one-dose screen, 48 h (100 = growth as untreated, 0 = no growth, -100 = all killed)
- recorded.conditions: 10 µM unless noted
- Protocol: Growth inhibition of the U251 human tumor cell line is measured as a screen for anti-cancer activity. Cells are grown in 96 well plates and exposed to the test compound for 48 hours. Compounds are tested at a single concentration, which is 10^-5 M for most compounds. The reported endpoint is percent growth (GI% or GIPRCNT), where numbers from 0 - 100% represent growth inhibition, and numbers from -100% - 0 represent cell death. For example, a value of 40 represents 60% growth inhibition. […]
This is part of a sample that, as a whole, favours compounds with a hit. Of some 83,000 tested, about 20% had one in any assay.
Some compounds, each annotated with its measured growth.
property.measured: growth (%)

> print(dat)
                                    compound  measured.number
 1  CCCNC(=O)Nc1ccc2cc3ccc(NC(=O)NCCC)cc3nc2c1             61.2
 2  O=C(c1ccncc1)N1N=C(c2ccc(Cl)cc2)C[C@H]1c1cn(-c2ccccc2)nc1-c1ccccc1             61.1
 3  c1cnc2c(-c3nc4ccc5[nH]ncc5c4c4c3CCCC4)c[nH]c2c1             29.8
 4   S=c1sc2c(Cl)nc(-c3cccnc3)nc2n1-c1ccccc1             7.95
 5  COC1=CC(c2ccc[nH]2)=N/C1=C\c1[nH]c(C)c(CC(=O)NCc2ccccc2)c1C             18.7
 6  N#CC1=C(c2ccccc2)Nc2c(c(-c3ccc(Cl)cc3)nn2-c2ccccc2)C12C(=O)Nc1ccc(Cl)cc12 (configuration not stated)               64
 7  N#Cc1nc(-c2ccc(F)cc2)oc1S(=O)(=O)N1CCCCC1             91.2
 8  N=C(N)c1ccc(-c2ccc(-c3ccc(Cl)c(Cl)c3)s2)nc1            -55.7
 9  CCN1C(=S)N(c2ccccc2)C2NC(=S)N(/N=C/C=C/c3ccccc3OC)C21 (configuration not stated)              3.1
10  O=C(N/N=C/c1ccc(Cl)cc1)c1[nH]c2ccc(Cl)cc2c1-c1ccccc1             10.4
11  Cc1ccc(C2=Nc3c(N)ncnc3NC(c3cccc(Nc4ccnc5cc(C(F)(F)F)ccc45)c3)C2)cc1 (configuration not stated)             31.1
12  COCCn1cc(-c2csc(-c3cn(C)c4ccc(Br)cc34)n2)c2cccnc21             51.4

###

- Test system: A498 renal
- experiment.description: NCI-60 one-dose screen, 48 h (100 = growth as untreated, 0 = no growth, -100 = all killed)
- recorded.conditions: 10 µM unless noted
The panel holds about 83,000 compounds, 20% with a hit somewhere; the sample as a whole holds those more often.
Threshold 80%: growth strictly smaller gives rule met, otherwise rule not met.

> print(dat)
                                   compound  assay.system  classification
1  Cc1c[n+](Cc2ccc3ccccc3c2)cn1Cc1ccc2ccccc2c1    A498 renal        rule met
2  O=C1/C(=C\c2ccc3nccnc3c2)SC(=S)N1CCc1ccc(O)cc1    A498 renal    rule not met
3  Oc1c(I)cc(I)cc1CNCCN(Cc1ccccn1)Cc1ccccn1    A498 renal        rule met
4  COc1cc2c(c(OC)c1OC)CCC(c1cccc(C(=O)Nc3cccc(Cl)c3)c1)O2 (configuration not stated)    A498 renal        rule met
5       N=C(N)c1ccc(-c2ccc(-c3ccccc3)o2)cc1    A498 renal        rule met
6  CC1=NC2=Nn3c(c4cnn(-c5ccccc5)c4n/c3=N\N)NN2C(c2ccccc2)=C1    A498 renal    rule not met
7  Cc1cc(=O)n(C(=O)Nc2ccccc2Cl)c2cc(O)ccc12    A498 renal    rule not met

###

- System: K-562 leukemia
- experiment.description: NCI-60 one-dose screen, 48 h (100 = growth as untreated, 0 = no growth, -100 = all killed)
- recorded.conditions: 10 µM unless noted
The panel holds about 83,000 compounds, 20% with a hit somewhere; the sample as a whole holds those more often.
Threshold 30%: growth strictly smaller gives 1.0, otherwise 0.0.

> print(dat)
                                   molecule  classification
1  C=C(CBr)[C@@H]1CC[C@]2(C(=O)O)CC[C@]3(C)[C@H](CC[C@@H]4[C@@]5(C)CCC(=O)C(C)(C)[C@@H]5CC[C@]43C)[C@@H]12             0.0
2  Clc1ccc2c(NC3CCC(N4CCOCC4)CC3)ccnc2c1 (stereo unspecified)             0.0
3  COC(=O)/C=C1/SC(=Nc2cccc(OC)c2)N(CCc2c[nH]c3ccc(O)cc23)C1=O             0.0
4             CC(C)Cn1cnc2c(=O)[nH]c(N)nc21             0.0
5  Cc1csc(Nc2nc(-c3ccccn3)nc(C(Cl)(Cl)Cl)n2)n1             0.0
6  O=C(Nc1ccc(Oc2cccc(Cl)c2)c(Cl)c1)c1cccnc1             1.0

###

- Tested on: K-562 leukemia
- experiment.description: NCI-60 one-dose screen, 48 h
- recorded.conditions: 10 µM unless noted
About 83,000 compounds went through this panel and 20% of them were active in at least one assay; those are over-represented in the sample as a whole. Active and inactive are the calls of the source. Rule for the calls: active = growth percent below 10; inactive = the rest.
Possible outcomes: active, inactive

> print(dat)
                            smiles.notation  classification
1  NC(=O)c1ccc(-c2c3ccccc3cc3c2ccc2ccccc23)cc1        inactive
2            O=C(Nc1nc2ccccc2s1)c1ccc(F)cc1        inactive
3   O=C(/C=C/c1ccccc1)Nc1ncc(Cc2ccccc2Cl)s1        inactive
4  C=C1C(=O)O[C@H]2[C@H]1CC/C(COC(=O)/C=C\C(=O)NCc1ccc(Cn3c(=O)sn(CCI)c3=O)cc1)=C\CC[C@@]1(C)O[C@@H]21          active

###

- Tested on: OVCAR-5 ovarian
- experiment.description: NCI-60 one-dose screen, 48 h
- recorded.conditions: 10 µM unless noted
Compounds without any hit were thinned out: in the full panel of roughly 83,000, 20% have a hit. Calls of active or inactive are those of the source. How the source made its calls: active means growth percent below 10; inactive means the rest.
Possible outcomes: TRUE (active), FALSE (inactive)

compound	assay.system	classification
Cc1ccc(C(=O)c2ccc(CC(=O)N/N=C/c3ccccc3O)n2C)cc1	OVCAR-5 ovarian	FALSE
CCOC(=O)c1nn(-c2ccc(S(N)(=O)=O)cc2)c2nc(C)cc(=O)n12	OVCAR-5 ovarian	FALSE
O=S(=O)(Nc1ccc(F)cc1F)c1ccc(-c2cnc(C3CC3)o2)cc1	OVCAR-5 ovarian	FALSE
COc1ccc(C(=O)c2cc3c(N)c(C(=O)Nc4ccc(C)cc4)sc3nc2C)cc1	OVCAR-5 ovarian	FALSE
C=C1CC[C@@H]2[C@](C)(COC(C)=O)[C@H](OC(C)=O)CC[C@@]2(C)[C@@H]1CC(Nc1ccc(S(=O)(=O)Nc2ncccn2)cc1)C1=CCOC1=O (some centres not stated)	OVCAR-5 ovarian	TRUE
Cc1cccc(/C=C/c2c(C(=O)/C=C/c3ccccc3)c(C)nc3ccccc23)c1	OVCAR-5 ovarian	TRUE
Clc1ccc2c(NC3CCC(N4CCOCC4)CC3)ccnc2c1 (configuration not stated)	OVCAR-5 ovarian	FALSE

###

- System: NCI-H322M lung
- experiment.description: NCI-60 one-dose screen, 48 h (100 = growth as untreated, 0 = no growth, -100 = all killed)
- recorded.conditions: 10 µM unless noted
The panel holds about 83,000 compounds, 20% with a hit somewhere; the sample as a whole holds those more often.
# label = Met if growth >= 70% else Not met

> print(dat)
                                    molecule  classification
 1  O=C1C(=O)N(Cc2ccc(-c3ccccc3)cc2)c2ccc(OC(F)(F)F)cc21             Met
 2      Nc1nc(N)c(-c2ccc(Cl)c(Cl)c2)c(CBr)n1             Met
 3  CS(=O)(=O)Nc1cc(-c2ccc3ncnc(Nc4ccc5c(cnn5Cc5cccc(F)c5)c4)c3c2)cnc1Cl         Not met
 4  CN(/C(N)=N/N=C/c1c2ccccc2cc2ccccc12)C1CCCCC1             Met
 5  c1ccc([P+](c2ccccc2)(c2ccccc2)c2ccc3c4ccc([P+](c5ccccc5)(c5ccccc5)c5ccccc5)c5cccc(c6cccc2c63)c54)cc1         Not met
 6  O=c1c2cccc3c(N4CCCC4)ccc(c32)c2nc3ccccc3n12             Met
 7  Clc1cc(Cl)c(Cl)c(-c2nnc(SCc3ccncc3Br)o2)c1             Met
 8        COc1cc(OCc2cccc(Br)c2C)cc(OC)c1C=O             Met
 9  CCCCCCC12CCC(=O)N1CCc1cncn12 (stereo not given)             Met
10  Cc1cc(N2CCN(CCNc3ccnc4cc(Cl)ccc34)CC2)nc(N2CCOCC2)n1             Met
